molecular target: KAT-6A (Homo sapiens (Human), UniProt Q92794); assay: KAT-6A biochemical inhibition assay (SAMDI mass spectrometry)
Sequence (Q92794 other isoform, or with tags, fused parts or gaps): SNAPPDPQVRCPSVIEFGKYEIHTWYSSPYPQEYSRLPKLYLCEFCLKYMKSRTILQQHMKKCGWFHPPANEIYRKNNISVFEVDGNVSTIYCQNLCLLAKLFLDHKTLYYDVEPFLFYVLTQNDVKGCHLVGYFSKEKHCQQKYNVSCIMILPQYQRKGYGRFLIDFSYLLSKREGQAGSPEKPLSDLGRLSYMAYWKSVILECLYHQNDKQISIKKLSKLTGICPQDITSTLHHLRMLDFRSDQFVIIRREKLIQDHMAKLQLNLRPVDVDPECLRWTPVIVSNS
Readout Label: IC50

For orientation, consider the following solved cases.
[
  {
    "Molecule": "O=C(NNS(=O)(=O)c1cccc(O)c1)c1cc(-c2ccccn2)cc(Cl)c1F",
    "Readout Label": "IC50",
    "Observed": "< 10 µM"
  },
  {
    "Molecule": "Cn1cnc(-c2cc(Cl)c(F)c(C(=O)NNS(=O)(=O)CC3CC4CC4C3)c2)c1 (stereo not drawn)",
    "Readout Label": "IC50",
    "Observed": "< 10 µM"
  },
  {
    "Molecule": "Cn1cnc(-c2cc(Cl)c(F)c(C(=O)NNS(=O)(=O)CC34CCC(CC3)CC4)c2)c1",
    "Readout Label": "IC50",
    "Observed": "< 10 µM"
  },
  {
    "Molecule": "Cn1cnc(-c2cc(Cl)c(F)c(C(=O)NNS(=O)(=O)C[C@H]3C[C@H](NC(=O)OC(C)(C)C)C3)c2)c1",
    "Readout Label": "IC50",
    "Observed": "< 10 µM"
  },
  {
    "Molecule": "Cn1cnc(-c2cc(Cl)c(F)c(C(=O)NNS(=O)(=O)C3CC3)c2)c1",
    "Readout Label": "IC50",
    "Observed": "> 100 µM"
  }
]

Please find the next molecule below.
Quick note, IC50 for CCS(=O)(=O)N1CCC(CS(=O)(=O)NNC(=O)c2cc(-c3cn(C)cn3)cc(Cl)c2F)C1 (stereo not drawn) landed at < 10 µM

Every entry's value here was drawn from patent US11685732B2.
